assay_explanation: MRP1 drug-resistance reversers in H69AR cells – cell-based, doxorubicin co-treatment, pilot screen (AID 601)
measurement_conditions: H69AR cells + 2 uM doxorubicin, CellTiter-Glo, 72 h; measured here: viability with 2 uM doxorubicin; at 10 µM; stronger effect = lower value
Binning of viability into classes: category 1 = under 80%, category 2 = from 80% up to 90%, category 3 = 90% and over

As a guide, the following entries are already answered.
• O=C(NCCN1CCN(c2ccccc2)CC1)c1ccc(NC(=O)C2CCCO2)cc1 (configuration not stated) = category 3
• CCN(CC)c1ccc2cc(-c3nc4ccccc4[nH]3)c(=O)oc2c1 = category 1
• COc1cccc(C2C(C(=O)c3ccc(C)o3)=C(O)C(=O)N2CCCN(C)C)c1 (configuration not stated) = category 3
• Cc1cc(C)c2c(=O)n(CC(=O)N3CCC(Cc4ccccc4)CC3)sc2n1 = category 1
• COC(=O)C1=C(N)OC2=C(C(=O)CCC2)C1c1cccs1 (configuration not stated) = category 2

Ask | Into which bin does this molecule go? CCOC(=O)c1cc2c(=O)n3ccccc3nc2n(CC(C)C)c1=NC(=O)c1ccco1
Reply | category 1

Ask | And the next one, CCOCCCNC(=O)c1ccc2c(c1)N(Cc1ccccc1)C(=O)CS2=O (configuration not stated) ?
Reply | category 3

Ask | And the next one, CCN1CCN(C(=O)c2cn(CC)c3ccc(S(=O)(=O)N(C)C)cc3c2=O)CC1 ?
Reply | category 3

Ask | And the next one, O=C(NCCN1CCCCCC1)c1ccc(CS(=O)(=O)c2ccc(Br)cc2)o1 ?
Reply | category 2

Ask | And the next one, O=C(c1ccc(NS(=O)(=O)c2cccs2)cc1)N1CCCCC1 ?
Reply | category 3

----------
assay_explanation: viability of PTEN-null HCT116 cells – cell-based, HCT116 clonal line, CellTiter-Glo, pilot screen (AID 824);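 further: 0% = 20 µM Hyamine control and 100% = vehicle cell control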
measurement_conditions: HCT116 PTEN-deleted viability, 60 h, at 10 µM, stronger effect = lower value
Results filed as inconclusive are left out.
result_type: viability (%)
# unit: % | format: bare number

• CCOC(=O)C(C)Sc1nnc(Cc2cc(=O)[nH]c(=O)[nH]2)n1-c1ccc(Cl)cc1 (configuration not stated) = 105
• O=C(Nc1ccc2c(c1)OCCO2)NC1CCCCC1 = 85.5
• Cc1cc(C)cc(OCCCCCNCCO)c1 = 86.5
• Cn1c(=O)c2c(nc3sccn32)n(C)c1=O = 99.4
• CN1C(=O)CS(=O)c2ccc(C(=O)NCCC3=CCCCC3)cc21 (configuration not stated) = 85
• CC(=O)CCc1c(C)[nH]c2ccc(NC(C)=O)cc2c1=O = 98
• Nc1nc(SCC(=O)N2CCCc3ccccc32)n(-c2ccccc2)n1 = 99.3
• Cc1cc2nc(-c3ccco3)cc(C(F)(F)F)n2n1 = 105

Ask | Fill blank: measured viability of the compound CCOc1ccc(N(CC(=O)NC2CCCC2)S(=O)(=O)c2c(C)noc2C)cc1 is ____.
Reply | 94.9

Ask | And the next one, Cc1cc(C)nc(NC2=NCC(=O)N2c2ccccc2Br)n1 ?
Reply | 100

Ask | And the next one, COc1ccc(S(=O)(=O)N(C)C2CCN(C)CC2)cc1 ?
Reply | 96.9

Ask | And the next one, CCc1ccccc1S(=O)(=O)Cc1ccc(C(=O)N2CCN(c3ccccn3)CC2)o1 ?
Reply | 78

Ask | And the next one, O=C(C1CC1)N1CCc2cc(Br)cc(S(=O)(=O)N3CCOCC3)c21 ?
Reply | 83.2

Ask | And the next one, COC(=O)c1cn(NC(=O)C2CCCO2)c(=O)c2ccccc12 (configuration not stated) ?
Reply | 98.8

Ask | And the next one, CSc1nnc(NC(=O)c2cc3ccccc3oc2=O)s1 ?
Reply | 95.5

Ask | And the next one, Cc1cc(C)cc(NC(=O)CSc2nnc(Cc3cccn3C)n2-c2ccc(F)cc2)c1 ?
Reply | 71.6

Ask | And the next one, COc1ccc(-n2c(Cc3cccn3C)nnc2SCC(=O)Nc2ccc3c(c2)OCCO3)cc1 ?
Reply | 94.6

Ask | And the next one, Cn1cc(S(=O)(=O)N2CCN(Cc3ccccc3)CC2)c(=O)n(C)c1=O ?
Reply | 95.5

Ask | And the next one, CCc1c(C)n([O-])c2c([n+]1=O)CCC2 ?
Reply | 102

Ask | And the next one, CCC(=O)Oc1ccc2c(C)cc(=O)oc2c1C ?
Reply | 97

Ask | And the next one, COc1ccccc1CNC(=O)C1CCC(CNc2c(N3CCOCC3)c(=O)c2=O)CC1 (configuration not stated) ?
Reply | 104

----------
# viability per record follows
assay_explanation: viability of PTEN-null HCT116 cells – cell-based, HCT116 clonal line, CellTiter-Glo, pilot screen (AID 824);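 further: 0% = 20 µM Hyamine control and 100% = vehicle cell control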
measurement_conditions: HCT116 PTEN-deleted viability, 60 h, at 10 µM, stronger effect = lower value
Inconclusive results are not listed.
# unit: % | format: bare number

Worked examples, 5 molecules total:
- CN(C1CCCCC1)S(=O)(=O)c1ccc(S(=O)(=O)N2CCN(CCC#N)CC2)cc1: 91.5
- COc1ccccc1CNC(=O)C1CCCN(S(=O)(=O)c2cccc3cccnc23)C1 (configuration not stated): 91.6
- COc1ccc(CNC(=O)c2cnc3n(c2=O)CCS3)cc1: 98.3
- O=C(c1ccc(CNc2c(N3CCCC3)c(=O)c2=O)cc1)N1CCc2ccccc2C1: 91
- Cc1ccnc(NC2c3ccccc3C(=O)N2Cc2ccccc2Cl)c1 (configuration not stated): 86.8

Ask | Fill blank: measured viability of the molecule Cc1cccc(Cn2c(SCCN3CCOCC3)nc3c2c(=O)n(C)c(=O)n3C)c1 is ____.
Reply | 91

Ask | And the next one, CCOc1ccc(N(CC(=O)NC2CCCCC2)S(=O)(=O)c2c(C)noc2C)cc1 ?
Reply | 89

Ask | And the next one, CCCn1cc(SCC(=O)Nc2nnc(C)s2)c2ccccc21 ?
Reply | 96.2

Ask | And the next one, Clc1ccc(-c2noc(COc3ccccc3)n2)cc1 ?
Reply | 95.6

Ask | And the next one, COc1cc(Cl)c(S(=O)(=O)NCc2cccnc2)cc1Cl ?
Reply | 97.3

Ask | And the next one, Cc1nc2ccc(C(=O)c3ccccc3)cc2[nH]1 ?
Reply | 100

Ask | And the next one, O=C1CC(c2ccc(Cl)c(Cl)c2)CC(O)=C1C=NCCN1CCNCC1 (configuration not stated) ?
Reply | 96.6

Ask | And the next one, CSc1nnc2n(-c3ccc(C)cc3)c(=O)c3c4c(sc3n12)COC(C(C)C)C4 (configuration not stated) ?
Reply | 31.6

Ask | And the next one, Cc1nc2ccccn2c1/C(O)=C1\C(=O)C(=O)N(CCCN(C)C)C1c1ccc(F)cc1 (configuration not stated) ?
Reply | 88.1

Ask | And the next one, O=C(Nc1nccs1)c1cc(S(=O)(=O)N2CCCCC2)ccc1Cl ?
Reply | 88.6

Ask | And the next one, CCOc1cccc(C(=O)N2CCCCC2c2cccnc2)c1 (configuration not stated) ?
Reply | 95.2

Ask | And the next one, COc1ccc(-c2cn3c(C)c(C(=O)N4CCN(c5ccc(F)cc5)CC4)sc3n2)cc1 ?
Reply | 103

----------
# viability per record follows
assay_explanation: HUVEC growth inhibition – cell-based, human, primary screen (AID 575);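 further: 100% = median of untreated cell wells with 0.1% DMSO on each plate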
measurement_conditions: HUVEC proliferation, CellTiter-Glo luminescence, 72 h; at 10 µM; stronger effect = lower value
# unit: % | format: bare number

Worked examples, 2 compounds total:
* CC(=O)c1cccc(NC(=O)CCOc2ccccc2)c1 | 106
* O=C(CCS(=O)(=O)c1cccc2nsnc12)NCc1ccccc1 | 91.2

Ask | Fill blank: measured viability of the compound Cc1ccc(-c2cc(C(F)(F)F)n3nc(C(=O)N4CCCC4)cc3n2)cc1 is ____.
Reply | 108

Ask | And the next one, CC1=C(C(=O)OCc2ccccc2)C(c2ccco2)n2ncnc2N1 (stereo unspecified) ?
Reply | 87.1

----------
# viability per record follows
assay_explanation: viability of HCT116 without oncogenic beta-catenin – human colon tumor cells, pilot screen (AID 823);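 further: 0% = wells killed by 20 µM Hyamine and 100% = untreated DMSO cell wells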
measurement_conditions: HCT116 beta-catenin knockout viability, CellTiter-Glo, 60 h; at 10 µM; stronger effect = lower value
Records with an inconclusive call do not appear.
# unit: % | format: bare number

Worked examples, 6 compounds total:
- CCOC(=O)CN1Cc2cccc(C(=O)O)c2C1=O: 95.6
- Cc1ccc(C(c2sc3ncnn3c2O)N2CC(C)CC(C)C2)cc1 (configuration not stated): 99.8
- CC1(C)Cc2ccccc2C(N)=C1C#N: 89.9
- CCN1C(=O)C(O)(CC(=O)c2ccc3c(c2)OCCO3)c2ccccc21 (configuration not stated): 99.1
- CCn1c(CCC(=O)Nc2cc(F)ccc2C)nc2cc(S(=O)(=O)N(C)C)ccc21: 99.5
- O=c1oc2ccccc2cc1NCc1ccccc1O: 91.2

Next, consider the following compound.
Ask | Fill blank: measured viability of the compound CC(=O)c1c(OC(=O)c2ccco2)c2ccccc2n1C is ____.
Reply | 75.1
